Target or system Apoptosis regulator Bcl-2 (Homo sapiens, UniProt P10415); metric pIC50; compiled from varied reports.
pIC50: −log10 of the molar value.

[[record]]
compound = "CCCCC(CCCC)C(=O)c1cc(C)n(-c2ccc(NC(=O)COc3ccc(N4CCCC4=O)cc3)cc2C(=O)N2Cc3ccccc3C[C@H]2CO)n1"
testedtarget = "Apoptosis regulator Bcl-2 (Homo sapiens, UniProt P10415)"
endpointname = "pIC50"
result = "6.22 to 6.24"

[[record]]
compound = "CC(C)C(=O)N1C[C@@H](CN2CCN(c3ccc(C(=O)NS(=O)(=O)c4ccc(NCC5CCOCC5)c([N+](=O)[O-])c4)c(Oc4cnc5[nH]ccc5c4)c3)CC2)[C@H](c2ccc(Cl)cc2)C1"
testedtarget = "Apoptosis regulator Bcl-2 (Homo sapiens, UniProt P10415)"
endpointname = "pIC50"
result = "7.30 to 8.00"

[[record]]
compound = "CCCCN(CCCC)C(=O)c1nn(-c2ccc(C(=O)NS(=O)(=O)c3ccc4c(Cl)ccc(Cl)c4c3)cc2C(=O)N2CCc3ccccc3C2)c(C)c1Cl"
testedtarget = "Apoptosis regulator Bcl-2 (Homo sapiens, UniProt P10415)"
endpointname = "pIC50"
result = 8.14

[[record]]
compound = "CCCCN(CCCC)C(=O)c1cc(C)n(-c2ccc(NC(=O)Cc3cccc(F)c3)cc2C(=O)C2Cc3ccccc3C[C@H]2CO)n1 (stereo partly drawn)"
testedtarget = "Apoptosis regulator Bcl-2 (Homo sapiens, UniProt P10415)"
endpointname = "pIC50"
result = "7.23 to 7.27"

[[record]]
compound = "CCCCN(CCCC)C(=O)c1cc(C)n(-c2ccc(NC(=O)CC3NC(=O)NC3=O)cc2C(=O)N2Cc3ccccc3C[C@H]2CO)n1 (stereo partly drawn)"
testedtarget = "Apoptosis regulator Bcl-2 (Homo sapiens, UniProt P10415)"
endpointname = "pIC50"
result = "6.25 to 6.26"


// next entry
Lab request: please report pIC50 under test system Apoptosis regulator Bcl-2 (Homo sapiens, UniProt P10415) for "COc1ccc(S(=O)(=O)Nc2ccccc2C(C)C)cc1NC(=O)c1cc(S(=O)(=O)N2CCc3ccccc3C2)cc(O)c1O"
≥ 6.00

* * *

pIC50: −log10 of the molar value.
Multiple publications report pIC50 for Apoptosis regulator Bcl-2 (Homo sapiens, UniProt P10415); what follows is a combined list.
Please mark TRUE if the recorded pIC50 is equal to or greater than 7, and FALSE if it falls below.

[[record]]
compound = "CCCCN(CCCC)c1nn(-c2ccc(C(=O)NS(=O)(=O)c3ccc4ccccc4c3)cc2C(=O)N2CCc3ccccc3C2)c(C)c1Cl"
answerlabel = "FALSE"

[[record]]
compound = "CC(=O)N(CCSc1ccccc1)c1ccc(S(=O)(=O)Nc2ncnc3c2CCN(C2CCN(Cc4cc(F)ccc4-c4ccc(Cl)cc4)CC2)C3)cc1S(=O)(=O)C(F)(F)F"
answerlabel = "FALSE"


Is it the case that "O=C(c1cc(S(=O)(=O)N2CCc3ccccc3C2)c(O)c(O)c1O)N1CCc2ccccc2C1" has pIC50 reaching or exceeding 7?
FALSE

Decide: pIC50 of "CN(C)CC[C@H](CSc1cc(Cl)cc(Cl)c1)Nc1ccc(S(=O)(=O)Nc2ncnc3c2CCN(C2CCN(Cc4ccccc4-c4ccc(Cl)cc4)CC2)C3)cc1S(=O)(=O)C(F)(F)F" >= 7?
FALSE

Could you tell me if the measured pIC50 of "CCC[C@H](CSc1ccccc1)Nc1ccc(S(=O)(=O)Nc2ncnc3c2CCN(C2CCN(Cc4ccccc4-c4ccc(Cl)cc4)CC2)C3)cc1S(=O)(=O)C(F)(F)F" reaches 7 or more?
FALSE

Please indicate if the recorded pIC50 for "CCCCN(CCCC)C(=O)c1nn(-c2ccc(C(=O)NS(=O)(=O)c3ccc4c(c3)CCN4CCSc3ccccc3)cc2C(=O)N2CCc3ccccc3C2)c(C)c1Cl" meets or exceeds 7.
TRUE

Form field: pIC50 at least 7? Entry: "CN(C)CC[C@H](CSc1ccccc1)Nc1ccc(S(=O)(=O)Nc2ncnc3c2CCN(C2CCN(Cc4ccccc4-c4ccc(F)cc4)CC2)C3)cc1S(=O)(=O)C(F)(F)F"
TRUE

Given the entry CCC(C)C(NC(=O)c1ccc(N)c(OC)c1)C(=O)Nc1ccc(C(=O)NC(CCSC)C(=O)Nc2ccc(C(N)=O)cc2OCC(C)C)cc1OCC(C)C (centres unmarked) , answer whether its pIC50 meets or surpasses 7.
FALSE

* * *

Published IC50 for Apoptosis regulator Bcl-2 (Homo sapiens), assembled from different documents, is shown next.

Past entries and their recorded results:
[[record]]
compound = "CN(C)CC[C@H](CSc1ccccc1)Nc1ccc(S(=O)(=O)Nc2ncnc3c2CCN(C2CCN(CC4=C(c5ccc(Cl)cc5)CCC(C)(C)C4)CC2)C3)cc1S(=O)(=O)C(F)(F)F"
result = "0.031 µM"

[[record]]
compound = "CCCCN(CCCC)C(=O)c1cc(C)n(-c2ccc(NC(=O)COc3ccc(Cl)cc3)cc2C(=O)N2Cc3ccccc3C[C@H]2CO)n1"
result = "0.198 µM"

[[record]]
compound = "CN(C)CC[C@H](CSc1ccc(Cl)c(Cl)c1)Nc1ccc(S(=O)(=O)Nc2ncnc3c2CCN(C2CCN(Cc4ccccc4-c4ccc(Cl)cc4)CC2)C3)cc1S(=O)(=O)C(F)(F)F"
result = "0.041 µM"


Reported IC50, compound "O=C(c1cc(S(=O)(=O)N2CCc3ccccc3C2)c(O)c(O)c1O)N1CCc2ccc(S(=O)(=O)NCCc3ccccc3)cc2C1" : ____
≤ 1 µM

What does the record list as IC50 for "CN(C)CC[C@H](CSc1ccccc1)Nc1c(F)cc(S(=O)(=O)Nc2ncnc3c2CCN(C2CCN(Cc4ccccc4-c4ccc(Cl)cc4)CC2)C3)cc1F" ?
3.06 µM

Fill blank: measured IC50 of the compound "CNS(=O)(=O)c1ccc2c(c1)CN(C(=O)c1cc(S(=O)(=O)N3CCc4ccccc4C3)c(O)c(O)c1O)CC2" is ____.
> 1 µM

For the compound shown here, "CCCCN(CCCC)C(=O)c1cc(C)n(-c2ccc(NC(=O)COc3ccccc3C#N)cc2C(=O)N2Cc3ccccc3C[C@H]2CO)n1" , give the reported IC50.
0.106 to 0.116 µM

Can you look up the measured IC50 of "CCCCN(CCCC)C(=O)c1cc(C)n(-c2ccc(NC(=O)CC3CCCCC3)cc2C(=O)N2Cc3ccccc3C[C@H]2CO)n1" for me?
0.291 to 0.325 µM

State the recorded IC50 for this entry: "CCCCN(CCCC)C(=O)c1cc(C)n(-c2ccc(NC(=O)c3ccc(OC(F)(F)F)cc3)cc2C(=O)N2Cc3ccccc3C[C@H]2CO)n1"
1.85 to 1.9 µM

* * *

IC50 values for Apoptosis regulator Bcl-2 (Homo sapiens, UniProt P10415) compiled from several publications are listed below.

The examples below pair each entry with its known result.
[[record]]
molecule = "CCCCN(CCCC)C(=O)c1cc(C)n(-c2ccc(NC(=O)CNC(=O)c3cccnc3)cc2C(=O)N2Cc3ccccc3C[C@H]2CO)n1"
endpointname = "IC50"
result = "88.7 to 103 nM"

[[record]]
molecule = "CCCCN(CCCC)C(=O)c1cc(C)n(-c2ccc(NC(=O)c3cnc(N4CCCC4)nc3)cc2C(=O)N2Cc3ccccc3C[C@H]2CO)n1"
endpointname = "IC50"
result = "290 to 393 nM"

[[record]]
molecule = "CCCCN(CCCC)C(=O)c1nn(-c2ccc(C(=O)NS(=O)(=O)c3ccc4ccc(OC(C)CN(C)C)cc4c3)cc2C(=O)N2CCc3ccccc3C2)c(C)c1Cl (centres unmarked)"
endpointname = "IC50"
result = "490 nM"

[[record]]
molecule = "O=C(NS(=O)(=O)c1ccc(NCC2CCOCC2)c([N+](=O)[O-])c1)c1ccc(N2CCN(CC(c3ccccc3)c3ccc(F)c(F)c3)CC2)cc1Oc1cnc2[nH]ccc2c1 (centres unmarked)"
endpointname = "IC50"
result = "> 50 nM"

[[record]]
molecule = "CN(C)CC[C@H](CSc1ccccc1)Nc1ccc(S(=O)(=O)Nc2ncnc3c2CCN(C2CCN(CC4=C(c5ccc(Cl)cc5)CCC(C)(C)C4)CC2)C3)cc1[N+](=O)[O-]"
endpointname = "IC50"
result = "31 nM"


# evaluate next
Lab note: need IC50 with Apoptosis regulator Bcl-2 (Homo sapiens, UniProt P10415) for entry "CC1(C)CCC(CN2CCN(c3ccc(C(=O)NS(=O)(=O)c4ccc(OCC5(F)CCN(C6COC6)CC5)c([N+](=O)[O-])c4)c(-n4ncc5nc6[nH]ccc6cc54)c3)CC2)=C(c2ccc(Cl)cc2)C1" , please look it up.
< 10 nM

* * *

pIC50: −log10 of the molar value.
Please find below pIC50 data on Apoptosis regulator Bcl-2 (Homo sapiens) compiled from the literature.
Give label 1 when the value for pIC50 is at least 7. Give label 0 when it is less.

Check out these entries, answers already filled in.
[[record]]
compound = "CCCCN(CCCC)C(=O)c1nn(-c2ccc(C(=O)NS(=O)(=O)c3ccc4c(c3)CCN4C(=O)N3CCOCC3)cc2C(=O)N2CCc3ccccc3C2)c(C)c1Cl"
testedtarget = "Apoptosis regulator Bcl-2 (Homo sapiens)"
answerlabel = "label 0"

[[record]]
compound = "CCCCN(CCCC)C(=O)c1nn(-c2ccc(C(=O)NS(=O)(=O)c3ccc4c(ccn4Cc4ccc(Cl)c(Cl)c4)c3)cc2C(=O)N2Cc3ccccc3C[C@H]2CO)c(C)c1Cl"
testedtarget = "Apoptosis regulator Bcl-2 (Homo sapiens)"
answerlabel = "label 1"

[[record]]
compound = "CCCCN(CCCC)C(=O)c1nn(-c2ccc(C(=O)NS(=O)(=O)c3ccc4ccccc4c3)cc2C(=O)N2Cc3ccccc3C[C@H]2CNC2CCN(C)CC2)c(C)c1Cl"
testedtarget = "Apoptosis regulator Bcl-2 (Homo sapiens)"
answerlabel = "label 1"


Kindly determine if pIC50 recorded for O=C(c1cc(C(=O)C2N=C3C=CC=CC3S2)c(O)c(O)c1O)C1N=C2C=CC=CC2S1 (stereo not drawn) is above or exactly 7.
label 0

Does the reported pIC50 for CC1Cc2c(ncnc2NS(=O)(=O)c2ccc(N[C@H](CCN(C)C)CSc3ccccc3)c(S(=O)(=O)C(F)(F)F)c2)CN1C1CCN(Cc2ccccc2-c2ccc(Cl)cc2)CC1 (stereo in doubt) fall at or above the 7 mark?
label 1

Evaluate "O=C(Nc1cccc(S(=O)(=O)c2ccccc2)c1)c1cc(CCc2ccccc2)c(O)c(O)c1O" : pIC50 at minimum 7?
label 0

Hi team, for "CC[C@H](CSc1ccccc1)Nc1ccc(S(=O)(=O)Nc2ncnc3c2CCN(C2CCN(Cc4ccccc4-c4ccc(Cl)cc4)CC2)C3)cc1S(=O)(=O)C(F)(F)F" , is the recorded pIC50 at or above 7?
label 0
